The measurements presented in this section are drawn from paper PMC12441834.

- protocol.description: Intrinsic clearance in liver microsomes
- Format: in vitro ADME, human
- measurement.setup: human liver microsomes
observed.property: Human CLhep, % Hepatic blood flow (%)
Provide the reading as a plain figure in %.

Here is how some compounds turned out for Human CLhep, % Hepatic blood flow.
> print(dat)
                               smiles.entry  uom  quantitative.readout
1  Cc1cc(Cl)cc2sc(O[C@@H]3CCN(C(=O)CCCS(=O)(=O)c4cccc(Br)c4)C[C@H]3F)nc12    %                    82
2  O=C(c1ccc(OCc2ccc(OC(F)(F)F)cc2)cc1)N1CCN(c2ccc(C(F)(F)F)cn2)CC1    %                    23
3  Cc1cc(Cl)cc2sc(O[C@H]3CCN(C(=O)CCCS(=O)(=O)c4cccc(Br)c4)C[C@@H]3F)nc12    %                    75
4  Cc1cc(Cl)cc2sc(O[C@@H]3CCN(C(=O)CCCS(=O)(=O)c4cccc(Br)c4)C[C@@H]3F)nc12    %                    82

# next compound below
Exercise: Form field: reported Human CLhep, % Hepatic blood flow of Cc1cc(Cl)cc2sc(O[C@H]3CCN(C(=O)CCCS(=O)(=O)c4cccc(Br)c4)C[C@H]3F)nc12
Solution: 74
